- assayed_system: Cathepsin D (Cat D) (Homo sapiens)
- Construct: made in house; host or cells: CHO cells
- protocol_text: In vitro enzymatic Cathepsin D (Cat D) FRET assay
- Format: biochemical
- assay_conditions: average IC50; first procedure; read-out: CatD IC50
Known IC50 of a selection of molecules
Give the number; µM is assumed, so skip it.

Examples from the recorded data:
CC#CCOc1cnc(C(=O)Nc2ccc(F)c([C@@]3(C)N=C(N)[C@@]4(CF)CC[C@@H]3S4(=O)=O)c2)cn1 [Example 94]: 257
C[C@]12CC[C@H]([C@@](C)(c3cc(Nc4ncnc5cc(Cl)cnc45)ccc3F)N=C1N)S2(=O)=O [Example 131]: 482
CC(C)(C)C#CCOc1cnc(C(=O)Nc2ccc(F)c([C@@]3(C)N=C(N)C4(CF)CCC3S4(=O)=O)c2)cn1 (stereo in doubt) [Example 38]: 437
C[C@]1(c2cc(Nc3nccc4nc(OCC(F)(F)F)cnc34)ccc2F)N=C(N)[C@@]2(CF)CC[C@@H]1S2(=O)=O [Example 112]: 1310
Cc1cc(OC(F)F)cnc1C(=O)Nc1ccc(F)c([C@@]2(C)N=C(N)[C@@]3(CF)CC[C@@H]2S3(=O)=O)c1 [Example 102]: 451

Short answer for CC#CCOc1cnc2c(Nc3ccc(F)c([C@@]4(C)N=C(N)[C@@]5(C)CC[C@@H]4S5(=O)=O)c3)ncc(F)c2c1 [Example 134] : IC50 was 1610

---

- assayed_system: Cathepsin D (Cat D) (Homo sapiens, UniProt P07339)
- Construct: made in house; host or cells: CHO cells
- Sequence (P07339 65-412, species assumed): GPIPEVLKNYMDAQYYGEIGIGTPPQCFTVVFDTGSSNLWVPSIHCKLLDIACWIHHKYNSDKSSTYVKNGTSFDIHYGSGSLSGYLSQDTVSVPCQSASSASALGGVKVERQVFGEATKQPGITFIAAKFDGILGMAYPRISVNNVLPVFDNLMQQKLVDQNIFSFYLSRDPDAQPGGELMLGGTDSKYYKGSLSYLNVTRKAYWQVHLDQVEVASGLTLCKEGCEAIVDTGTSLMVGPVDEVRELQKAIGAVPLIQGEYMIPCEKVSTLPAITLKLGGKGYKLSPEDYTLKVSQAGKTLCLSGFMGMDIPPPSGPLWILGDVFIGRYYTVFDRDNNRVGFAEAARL
- protocol_text: In vitro enzymatic Cathepsin D (Cat D) FRET assay
- Type: biochemical
- assay_conditions: average IC50; first procedure; read-out: CatD IC50
test_readout: IC50 (µM)
Give the number; µM is assumed, so skip it.

Examples from the recorded data:
CC#CCOc1cnc(C(=O)Nc2ccc(F)c([C@@]3(C)N=C(N)[C@]4(CF)CC[C@H]3S4(=O)=O)c2)cn1: 603
C[C@]1(c2cc(NC(=O)c3ccc(C(F)(F)F)cn3)ccc2F)N=C(N)[C@@]2(CF)CC[C@@H]1S2(=O)=O: 536

Short answer for C[C@]12CC[C@](C)(C(N)=N[C@]1(C)c1cc(Nc3ncc(F)c4cc(Cl)cnc34)ccc1F)S2(=O)=O : IC50 was 12

Short answer for COc1cnc2c(Nc3ccc(F)c([C@@]4(C)N=C(N)[C@@]5(CF)CC[C@@H]4S5(=O)=O)c3)ncnc2c1 : IC50 was 359

Short answer for COc1cnc(C(=O)Nc2ccc(F)c([C@@]3(C)N=C(N)[C@@]4(CF)CC[C@@H]3S4(=O)=O)c2)c(C)n1 : IC50 was 1060

Short answer for Cc1cc(Cl)cnc1C(=O)Nc1ccc(F)c([C@@]2(C)N=C(N)[C@@]3(CF)CC[C@@H]2S3(=O)=O)c1 : IC50 was 685

Short answer for C[C@]1(c2cc(NC(=O)c3ncc(Cl)cc3Cl)ccc2F)N=C(N)[C@@]2(CF)CC[C@@H]1S2(=O)=O : IC50 was 926

Short answer for Cc1cc(C(F)(F)F)cnc1C(=O)Nc1ccc(F)c([C@@]2(C)N=C(N)[C@]3(C)CC[C@@]2(C)S3(=O)=O)c1 : IC50 was 66.6

Short answer for Cc1cc(C(F)F)cnc1C(=O)Nc1ccc(F)c([C@@]2(C)N=C(N)[C@@]3(CF)CC[C@@H]2S3(=O)=O)c1 : IC50 was 891

---

- assayed_system: BACE1 (Homo sapiens)
- Sequence (P56817 46-501, species assumed): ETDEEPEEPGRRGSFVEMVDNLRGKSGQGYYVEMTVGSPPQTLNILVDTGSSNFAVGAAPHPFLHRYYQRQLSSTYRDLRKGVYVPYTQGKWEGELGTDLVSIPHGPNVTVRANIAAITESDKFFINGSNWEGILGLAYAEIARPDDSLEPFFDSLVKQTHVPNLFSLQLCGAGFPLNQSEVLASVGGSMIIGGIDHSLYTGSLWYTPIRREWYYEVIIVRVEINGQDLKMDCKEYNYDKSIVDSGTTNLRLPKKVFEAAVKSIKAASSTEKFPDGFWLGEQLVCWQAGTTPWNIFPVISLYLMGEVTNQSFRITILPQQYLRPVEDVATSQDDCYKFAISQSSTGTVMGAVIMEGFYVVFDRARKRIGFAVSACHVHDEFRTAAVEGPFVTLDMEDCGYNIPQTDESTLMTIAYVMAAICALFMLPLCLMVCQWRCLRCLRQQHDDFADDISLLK
- protocol_text: In vitro enzymatic BACE FRET assay
- Format: biochemical
- assay_conditions: read-out: BACE1 FRET assay IC50
Known IC50 of a selection of molecules
Give the number; nM is assumed, so skip it.

Examples from the recorded data:
Cc1cc(Cl)cnc1C(=O)Nc1ccc(F)c([C@@]2(C)N=C(N)[C@@]3(C)CCC[C@]2(F)S3(=O)=O)c1: 7
Cc1cc(Cl)cnc1C(=O)Nc1ccc(F)c([C@@]2(C)N=C(N)[C@]3(C)CC[C@@]2(C)S3(=O)=O)c1: 7

Short answer for Cc1cc(C(F)(F)F)cnc1C(=O)Nc1ccc(F)c([C@@]2(C)N=C(N)[C@]3(C)CC[C@H]2S3(=O)=O)c1 : IC50 was 14

---

- Tested on: Aβ40 in conditioned medium of cells stably expressing Amyloid Precursor Protein (APP)
- protocol_text: In vitro BACE cell-based assay (HEK cell assay, Aβ40 sandwich ELISA)
- assay_conditions: Homo sapiens, HEK293; average IC50; read-out: BACE1 cell assay IC50
For each record, check the reported IC50: if it is below 20 nM write Criterion met, else write Criterion not met.

Observe how each entry below is paired with its result.
C[C@]1(c2cc(Nc3ncnc4cc(C#N)cnc34)ccc2F)N=C(N)[C@@]2(CF)CC[C@@H]1S2(=O)=O: Criterion not met
COc1cnc2c(Nc3ccc(F)c([C@@]4(C)N=C(N)[C@]5(C)CC[C@H]4S5(=O)=O)c3)nccc2n1: Criterion not met
COc1cnc(C(=O)Nc2ccc(F)c([C@@]3(C)N=C(N)[C@@]4(C)CC[C@@H]3S4(=O)=O)c2)c(C)n1: Criterion met
C[C@]12CC[C@](C)([C@@](C)(c3cc(Nc4ncc(F)c5cc(Cl)cnc45)ccc3F)N=C1N)S2(=O)=O: Criterion not met
Cc1cc(Cl)cnc1C(=O)Nc1ccc(F)c([C@@]2(CF)N=C(N)[C@@]3(C)CC[C@@H]2S3(=O)=O)c1 (single isomer, unassigned): Criterion not met

Turning now to a further record.
I wonder whether C[C@]1(c2cc(Nc3ncnc4cc(OCC5CC5)cnc34)ccc2F)N=C(N)[C@@]2(C)CC[C@@H]1S2(=O)=O has IC50 below 20 nM. Can you tell?
Criterion met

---

- System: Aβ40 in conditioned medium of cells stably expressing Amyloid Precursor Protein (APP)
- protocol_text: In vitro BACE cell-based assay (HEK cell assay, Aβ40 sandwich ELISA)
- assay_conditions: Homo sapiens, HEK293; average IC50; read-out: BACE1 cell assay IC50
test_readout: pIC50
To interpret pIC50, take it as minus log10 of a concentration measured in moles per litre.

Examples from the recorded data:
C[C@]1(c2cc(Nc3ncc(F)c4cc(Cl)cnc34)ccc2F)N=C(N)[C@@]2(CF)CC[C@@H]1S2(=O)=O: 7.05
C#CCOc1cnc(C(=O)Nc2ccc(F)c([C@@]3(C)N=C(N)[C@@]4(CF)CC[C@@H]3S4(=O)=O)c2)c(C)n1: 9.00
C[C@]1(c2cc(Nc3nccc4nc(OCC5CC5)cnc34)ccc2F)N=C(N)[C@@]2(C)CC[C@@H]1S2(=O)=O: 7.48

Short answer for Cc1cc(C(F)(F)F)cnc1C(=O)Nc1ccc(F)c([C@@]2(CF)N=C(N)[C@]3(C)CC[C@H]2S3(=O)=O)c1 (single isomer, unassigned) : pIC50 was 7.33

Short answer for C[C@]1(c2cc(Nc3nccc4nc(C(F)(F)F)cnc34)ccc2F)N=C(N)[C@@]2(CF)CC[C@@H]1S2(=O)=O : pIC50 was 6.45

---

- assayed_system: Cathepsin D (Cat D) (Homo sapiens, UniProt P07339)
- Construct: made in house; host or cells: CHO cells
- protocol_text: In vitro enzymatic Cathepsin D (Cat D) FRET assay
- Type: biochemical
- assay_conditions: average IC50; first procedure; read-out: CatD IC50
test_readout: IC50

Examples from the recorded data:
C[C@]1(c2cc(Nc3ncc(F)c4cc(OCC5CC5)cnc34)ccc2F)N=C(N)[C@@]2(C)CC[C@@H]1S2(=O)=O: > 400 µM
C[C@]1(c2cc(NC(=O)c3ccc(C#N)cc3F)ccc2F)N=C(N)[C@@]2(C)CC[C@@H]1S2(=O)=O: > 400 µM

Proceeding to the next molecule to report its IC50.
Short answer for CC#C[C@H](C)Oc1cnc(C(=O)Nc2ccc(F)c([C@@]3(C)N=C(N)[C@@]4(C)CC[C@@H]3S4(=O)=O)c2)cn1 : IC50 was > 400 µM

---

- assayed_system: Cathepsin D (Cat D) (Homo sapiens)
- Construct: made in house; host or cells: CHO cells
- protocol_text: In vitro enzymatic Cathepsin D (Cat D) FRET assay
- Type: biochemical
- assay_conditions: average IC50; first procedure; read-out: CatD IC50
- Procedure: In Vitro Enzymatic Cathepsin D (Cat D) FRET (Fluorescence Resonance Energy Transfer) Assay Recombinant Cat D was expressed in CHO cells. The assay buffer for CathepsinD is 0.05 M citrate pH 3.5, 10% DMSO final, 5 mM CHAPS. […] The FRET assay is terminated with by addition of Tris buffer, which raises the pH to neutrality, and the fluorescence is determined. […] Proteolytic cleavage of the FRET substrate releases quenching of fluorescence (Cat D excitation 500 nm and emission 580 nm). […]
pIC50: −log10 of the molar value.
Known pIC50 of a selection of compounds

Examples from the recorded data:
Cn1ccc(COc2cnc3c(Nc4ccc(F)c([C@@]5(C)N=C(N)[C@@]6(C)CC[C@@H]5S6(=O)=O)c4)nccc3n2)n1: < 3.40
COC[C@]12CC[C@H]([C@@](C)(c3cc(NC(=O)c4ncc(Cl)cc4C)ccc3F)N=C1N)S2(=O)=O: < 3.40

Short answer for C[C@]12CC[C@H]([C@@](C)(c3cc(Nc4nccc5nc(C(F)(F)F)cnc45)ccc3F)N=C1N)S2(=O)=O : pIC50 was < 4.35
